Target Or Test System: UniProtKB Q12809
Sequence (Q12809 whole entry): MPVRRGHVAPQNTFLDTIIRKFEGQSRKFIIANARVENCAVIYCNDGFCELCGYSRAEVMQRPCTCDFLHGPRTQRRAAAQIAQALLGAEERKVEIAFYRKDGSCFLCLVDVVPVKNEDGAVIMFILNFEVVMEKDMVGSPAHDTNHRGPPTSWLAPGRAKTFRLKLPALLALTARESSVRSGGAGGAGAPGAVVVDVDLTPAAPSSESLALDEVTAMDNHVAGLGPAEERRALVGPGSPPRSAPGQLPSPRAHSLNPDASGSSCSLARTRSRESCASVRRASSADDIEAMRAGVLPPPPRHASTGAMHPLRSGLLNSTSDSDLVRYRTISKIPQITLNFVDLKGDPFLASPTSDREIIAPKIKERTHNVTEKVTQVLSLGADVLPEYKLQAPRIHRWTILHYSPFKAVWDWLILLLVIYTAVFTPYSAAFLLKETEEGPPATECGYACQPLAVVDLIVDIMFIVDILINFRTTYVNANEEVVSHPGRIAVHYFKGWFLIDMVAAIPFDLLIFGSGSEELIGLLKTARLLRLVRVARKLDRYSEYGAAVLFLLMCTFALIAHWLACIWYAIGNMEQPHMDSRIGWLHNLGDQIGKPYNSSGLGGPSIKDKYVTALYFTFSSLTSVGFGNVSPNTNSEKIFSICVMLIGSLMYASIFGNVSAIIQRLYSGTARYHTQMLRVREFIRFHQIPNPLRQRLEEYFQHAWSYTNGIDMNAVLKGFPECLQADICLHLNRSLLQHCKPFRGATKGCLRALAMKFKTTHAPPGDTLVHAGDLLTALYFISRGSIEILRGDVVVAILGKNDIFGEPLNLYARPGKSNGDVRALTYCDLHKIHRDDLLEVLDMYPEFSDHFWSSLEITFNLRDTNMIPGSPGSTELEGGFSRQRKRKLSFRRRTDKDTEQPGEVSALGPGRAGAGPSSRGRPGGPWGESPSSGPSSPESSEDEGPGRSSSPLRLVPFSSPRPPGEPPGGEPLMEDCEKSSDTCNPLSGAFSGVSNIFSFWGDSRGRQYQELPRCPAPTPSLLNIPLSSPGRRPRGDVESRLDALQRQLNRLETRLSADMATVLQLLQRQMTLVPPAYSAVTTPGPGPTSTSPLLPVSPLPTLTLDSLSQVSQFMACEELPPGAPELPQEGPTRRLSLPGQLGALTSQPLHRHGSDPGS
Test Readout: Kd

// lookup Kd | system=UniProtKB Q12809 | key= Cn1c(C(=O)NCc2ccccc2F)cc2ccc(-c3cn[nH]c3)nc21
> 100 µM
